measured_target: T1, PTP1B under reducing condition (Homo sapiens, UniProt P18031)
T1 construct: made in house; host or cells: E. coli BL21 (pET19b)
T1 sequence (P18031 3-277 limits assumed): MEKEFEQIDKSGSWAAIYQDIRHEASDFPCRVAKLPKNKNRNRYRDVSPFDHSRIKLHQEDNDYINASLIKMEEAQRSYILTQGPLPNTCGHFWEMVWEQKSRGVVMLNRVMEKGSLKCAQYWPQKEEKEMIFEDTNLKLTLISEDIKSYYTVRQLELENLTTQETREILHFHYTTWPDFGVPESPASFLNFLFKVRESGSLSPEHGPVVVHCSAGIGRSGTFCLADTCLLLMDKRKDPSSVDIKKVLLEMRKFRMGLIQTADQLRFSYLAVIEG
method_notes: In vitro binding assay, purified recombinant PTP1B (37 kDa) and purified scFv, Ni-NTA pull down, reducing condition
settings: with 2 mM TCEP; FIG. 9
observation_type: binding to PTP1B under reducing condition in vitro

- molecule: "scFv28: scFv, truncated sequence, SEQ ID NO: 61 (protein) scFv: MKKTAIAIAVALAGFATVAQAAVIYSNDERPSDIPSRFSGSTSGSTSTLTITGVQADDEAVYFCGSADSSTYAGIFGAGTTLTVLGQSSRSSAVTLDESGGGLQTPGGALSLVCKASGFTFSSFNMFWVRQAPGRGLEFVAGITSSGGSTYYGTAVKGRATISRDNGQSTVRMQLNNLRAEDTGTYFCARGAYDYYFYWNYAGTIDAWGHGTEVIVSSTSGQAGQHHHHHHGAYPYDVPDYAS"
  result: "no significant binding"
- molecule: "scFv21: scFv, SEQ ID NO: 54 (protein) scFv: MKKTAIAIAVALAGFATVAQAALTQPSSVSANPGGTVKITCSGSSGSYYGWYQQKSPGSAPVTVIYDNDKRPSDVPSRFSGSKSGPTATLTITGVQAEDEAVYFCGSRDNSYVGIFGAGTTLTVLGQSSRSSAVTLDESGGGLQTPGGALSLVCKASGFTFSSYDMFWVRQAPGKGLEFVAQINSAGSYTNYGSAVKGRATISRDDGQSTVRLQLNNLRAEDTGIYFCAKSASGYYYSGSDAGDIDAWGHGTEVIVSSTSGQAGQHHHHHHGAYPYDVPDYAS"
  result: "no significant binding"
- molecule: "scFv20: scFv, SEQ ID NO: 53 (protein) scFv: MKKTAIAIAVALAGFATVAQAALTQPSSVSANLGGIVEITCSGSSGSYGWYQQKSPGSAPVTVIYYNDKRPSNIPSRFSGSGSGSTNTLTIAGVRAEDEAVYYCGNEDSSGAAFGAGTTLTVLGQSSRSSAVTLDESGGGLQTPGGGLSLVCKASGFTFSDYDMFWVRQAPSKGLEFVAAITSSGTGTKYGAAVKGRATISKDNGQRTVRLQLNSLGAEDTGTYYCARSDADSTTWSAGEIDAWGHGTEVIVSSTSGQAGQHHHHHHGAYPYDVPDYAS"
  result: "no significant binding"
